# SUBJECT_OF_TEST: UniProtKB P22309
# Sequence (P22309 whole entry): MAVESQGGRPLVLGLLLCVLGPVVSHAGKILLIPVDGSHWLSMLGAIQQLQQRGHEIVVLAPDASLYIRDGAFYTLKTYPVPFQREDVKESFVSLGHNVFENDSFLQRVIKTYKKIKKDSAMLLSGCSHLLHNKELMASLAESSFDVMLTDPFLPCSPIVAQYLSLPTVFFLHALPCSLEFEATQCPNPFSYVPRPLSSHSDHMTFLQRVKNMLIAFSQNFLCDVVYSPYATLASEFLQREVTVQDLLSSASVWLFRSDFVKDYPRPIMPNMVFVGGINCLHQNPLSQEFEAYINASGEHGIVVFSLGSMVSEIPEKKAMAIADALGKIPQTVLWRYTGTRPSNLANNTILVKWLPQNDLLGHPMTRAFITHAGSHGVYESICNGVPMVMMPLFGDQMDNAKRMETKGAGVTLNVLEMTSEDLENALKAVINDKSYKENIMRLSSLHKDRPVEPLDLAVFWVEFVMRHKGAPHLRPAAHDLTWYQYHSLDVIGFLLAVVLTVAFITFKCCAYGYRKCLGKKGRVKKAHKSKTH
# PROTOCOL_TEXT: Substrate inhibition of human recombinant UGT1A1 assessed as IRI-O-5-monoglucuronide formation incubated for 5 mins prior to UDPGA addition measured after 90 mins by Eadie-Hoftsee plot analysis
# Assay type: ADME
EXPERIMENTAL_ENDPOINT: Ki (µM)

{"columns": ["SAMPLE_SMILES", "EXPERIMENTAL_ENDPOINT", "RECORDED_VALUE"],
 "data": [
  ["O=c1c(-c2ccc(O)cc2)coc2cc3c(c(O)c12)OCO3", "Ki", 8.5]
]}

----------
# SUBJECT_OF_TEST: UDP-glucuronosyltransferase 1A10 (Homo sapiens)
# Sequence (Q9HAW8 whole entry): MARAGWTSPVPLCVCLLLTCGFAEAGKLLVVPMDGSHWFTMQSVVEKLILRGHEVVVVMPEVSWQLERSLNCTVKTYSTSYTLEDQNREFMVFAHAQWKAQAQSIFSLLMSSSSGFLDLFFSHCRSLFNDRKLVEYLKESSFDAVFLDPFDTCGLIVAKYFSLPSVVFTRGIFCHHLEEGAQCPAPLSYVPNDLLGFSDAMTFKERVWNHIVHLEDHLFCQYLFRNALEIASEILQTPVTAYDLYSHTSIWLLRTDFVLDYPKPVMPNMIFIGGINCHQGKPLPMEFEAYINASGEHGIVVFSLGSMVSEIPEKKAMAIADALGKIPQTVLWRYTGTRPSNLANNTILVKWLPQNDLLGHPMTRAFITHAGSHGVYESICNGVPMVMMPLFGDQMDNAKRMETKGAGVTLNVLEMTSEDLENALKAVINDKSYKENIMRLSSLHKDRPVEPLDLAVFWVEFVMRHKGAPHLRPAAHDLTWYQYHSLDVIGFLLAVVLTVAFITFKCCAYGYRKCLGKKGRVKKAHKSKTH
# PROTOCOL_TEXT: Substrate inhibition of human recombinant UGT1A10 assessed as IRI-O-4'-monoglucuronide formation incubated for 5 mins prior to UDPGA addition measured after 90 mins by Eadie-Hoftsee plot analysis
# Assay type: ADME
pKi: −log10 of the molar value.

{"columns": ["SAMPLE_SMILES", "SUBJECT_OF_TEST", "pKi"],
 "data": [
  ["O=c1c(-c2ccc(O)cc2)coc2cc3c(c(O)c12)OCO3", "UDP-glucuronosyltransferase 1A10 (Homo sapiens)", 3.92]
]}

----------
# SUBJECT_OF_TEST: UDP-glucuronosyltransferase 1A9 (Homo sapiens)
# Sequence (O60656 whole entry): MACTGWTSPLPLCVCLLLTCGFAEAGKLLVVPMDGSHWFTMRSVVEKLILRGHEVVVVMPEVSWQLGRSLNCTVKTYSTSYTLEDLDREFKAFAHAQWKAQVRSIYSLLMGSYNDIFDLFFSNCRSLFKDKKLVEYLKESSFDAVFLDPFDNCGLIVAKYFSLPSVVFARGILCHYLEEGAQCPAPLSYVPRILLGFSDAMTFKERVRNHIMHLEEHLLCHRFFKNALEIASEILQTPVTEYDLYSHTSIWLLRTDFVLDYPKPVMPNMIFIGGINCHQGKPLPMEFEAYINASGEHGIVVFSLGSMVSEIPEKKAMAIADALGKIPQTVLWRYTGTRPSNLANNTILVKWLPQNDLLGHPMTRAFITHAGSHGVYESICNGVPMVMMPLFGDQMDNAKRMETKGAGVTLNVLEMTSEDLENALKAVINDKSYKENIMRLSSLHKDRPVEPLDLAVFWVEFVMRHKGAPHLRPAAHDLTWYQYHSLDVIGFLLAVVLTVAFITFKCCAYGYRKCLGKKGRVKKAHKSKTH
# PROTOCOL_TEXT: Substrate inhibition of human recombinant UGT1A9 assessed as IRI-O-5-monoglucuronide formation incubated for 5 mins prior to UDPGA addition measured after 90 mins by Eadie-Hoftsee plot analysis
pKi: −log10 of the molar value.

{"columns": ["SAMPLE_SMILES", "pKi"],
 "data": [
  ["O=c1c(-c2ccc(O)cc2)coc2cc3c(c(O)c12)OCO3", 3.27]
]}

----------
# SUBJECT_OF_TEST: Liver microsome
# PROTOCOL_TEXT: Drug metabolism in human liver microsomes assessed as substrate inhibition of IRI-O-4'-monoglucuronide formation incubated for 5 mins prior to UDPGA addition measured after 90 mins by Eadie-Hoftsee plot analysis
# Format: ADME
pKi: −log10 of the molar value.
EXPERIMENTAL_ENDPOINT: pKi

{"columns": ["SAMPLE_SMILES", "RECORDED_VALUE"],
 "data": [
  ["O=c1c(-c2ccc(O)cc2)coc2cc3c(c(O)c12)OCO3", 4.29]
]}

----------
# Tested on: Liver microsome
# PROTOCOL_TEXT: Drug metabolism in human liver microsomes assessed as IRI-O-5-monoglucuronide formation incubated for 5 mins prior to UDPGA addition measured after 90 mins by Eadie-Hoftsee plot analysis
# Format: ADME
# RUN_CONDITIONS: 1.5 h

{"columns": ["SAMPLE_SMILES", "Km, µM"],
 "data": [
  ["O=c1c(-c2ccc(O)cc2)coc2cc3c(c(O)c12)OCO3", 9.8]
]}

----------
# SUBJECT_OF_TEST: UDP-glucuronosyltransferase 1A7 (Homo sapiens, UniProt Q9HAW7)
# Sequence (Q9HAW7 whole entry): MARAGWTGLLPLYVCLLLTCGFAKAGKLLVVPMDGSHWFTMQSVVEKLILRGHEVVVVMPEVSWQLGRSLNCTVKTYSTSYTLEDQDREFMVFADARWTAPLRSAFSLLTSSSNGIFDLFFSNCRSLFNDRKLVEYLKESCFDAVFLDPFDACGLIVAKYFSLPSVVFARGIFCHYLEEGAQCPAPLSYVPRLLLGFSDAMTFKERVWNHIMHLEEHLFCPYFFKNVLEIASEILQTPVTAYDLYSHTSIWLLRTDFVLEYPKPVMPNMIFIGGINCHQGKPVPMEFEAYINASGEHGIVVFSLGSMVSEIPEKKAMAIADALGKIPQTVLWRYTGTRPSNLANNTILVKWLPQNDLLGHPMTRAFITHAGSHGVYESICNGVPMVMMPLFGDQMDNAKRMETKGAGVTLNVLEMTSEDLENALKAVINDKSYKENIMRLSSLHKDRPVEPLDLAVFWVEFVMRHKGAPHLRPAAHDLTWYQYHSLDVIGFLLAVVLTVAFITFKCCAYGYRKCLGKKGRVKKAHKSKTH
# PROTOCOL_TEXT: Substrate inhibition of human recombinant UGT1A7 assessed as IRI-O-5-monoglucuronide formation incubated for 5 mins prior to UDPGA addition measured after 90 mins by Eadie-Hoftsee plot analysis
pKi: −log10 of the molar value.

{"columns": ["SAMPLE_SMILES", "pKi"],
 "data": [
  ["O=c1c(-c2ccc(O)cc2)coc2cc3c(c(O)c12)OCO3", 4.00]
]}

----------
# SUBJECT_OF_TEST: Liver microsome
# PROTOCOL_TEXT: Drug metabolism in Sprague-Dawley rat liver microsomes assessed as substrate inhibition of IRI-O-4'-monoglucuronide formation incubated for 5 mins prior to UDPGA addition measured after 90 mins by Eadie-Hoftsee plot analysis
# Format: ADME

{"columns": ["SAMPLE_SMILES", "SUBJECT_OF_TEST", "Ki / µM"],
 "data": [
  ["O=c1c(-c2ccc(O)cc2)coc2cc3c(c(O)c12)OCO3", "Liver microsome", 44.7]
]}
